- experimental.target: acetylcholine receptor
- run.description: SPR, peptide at 10 uM, AchR immobilized

[
  {
    "binder": "KKHSMK [6mer-1-726]",
    "units.label": "RU",
    "Binding affinity": 33
  },
  {
    "binder": "KKDWNR [6mer-1-670]",
    "units.label": "RU",
    "Binding affinity": 11
  },
  {
    "binder": "KKMHHR [6mer-1-710]",
    "units.label": "RU",
    "Binding affinity": 21
  },
  {
    "binder": "RRAAVR [6mer-1-732]",
    "units.label": "RU",
    "Binding affinity": 26
  },
  {
    "binder": "KRCPVR [6mer-1-689]",
    "units.label": "RU",
    "Binding affinity": 11
  },
  {
    "binder": "RRPTNR [6mer-1-697]",
    "units.label": "RU",
    "Binding affinity": 13
  },
  {
    "binder": "KRMKDR [6mer-1-706]",
    "units.label": "RU",
    "Binding affinity": 29
  },
  {
    "binder": "RRIKAR [6mer-1-731]",
    "units.label": "RU",
    "Binding affinity": 18
  },
  {
    "binder": "RKANGK [6mer-1-727]",
    "units.label": "RU",
    "Binding affinity": 29
  },
  {
    "binder": "RKPKAR [6mer-1-691]",
    "units.label": "RU",
    "Binding affinity": 31
  },
  {
    "binder": "RKAMEK [6mer-1-721]",
    "units.label": "RU",
    "Binding affinity": 22
  },
  {
    "binder": "RKFKAR [6mer-1-718]",
    "units.label": "RU",
    "Binding affinity": 23
  },
  {
    "binder": "KKDKPK [6mer-1-725]",
    "units.label": "RU",
    "Binding affinity": 32
  },
  {
    "binder": "KRATFR [6mer-1-730]",
    "units.label": "RU",
    "Binding affinity": 13
  },
  {
    "binder": "KKDAEK [6mer-1-719]",
    "units.label": "RU",
    "Binding affinity": 27
  },
  {
    "binder": "RKMPAK [6mer-1-723]",
    "units.label": "RU",
    "Binding affinity": 33
  }
]
